Listed here: items and their measured IC50.
- study.system: NLRP3 (Homo sapiens, UniProt Q96P20)
- Sequence (Q96P20 whole entry): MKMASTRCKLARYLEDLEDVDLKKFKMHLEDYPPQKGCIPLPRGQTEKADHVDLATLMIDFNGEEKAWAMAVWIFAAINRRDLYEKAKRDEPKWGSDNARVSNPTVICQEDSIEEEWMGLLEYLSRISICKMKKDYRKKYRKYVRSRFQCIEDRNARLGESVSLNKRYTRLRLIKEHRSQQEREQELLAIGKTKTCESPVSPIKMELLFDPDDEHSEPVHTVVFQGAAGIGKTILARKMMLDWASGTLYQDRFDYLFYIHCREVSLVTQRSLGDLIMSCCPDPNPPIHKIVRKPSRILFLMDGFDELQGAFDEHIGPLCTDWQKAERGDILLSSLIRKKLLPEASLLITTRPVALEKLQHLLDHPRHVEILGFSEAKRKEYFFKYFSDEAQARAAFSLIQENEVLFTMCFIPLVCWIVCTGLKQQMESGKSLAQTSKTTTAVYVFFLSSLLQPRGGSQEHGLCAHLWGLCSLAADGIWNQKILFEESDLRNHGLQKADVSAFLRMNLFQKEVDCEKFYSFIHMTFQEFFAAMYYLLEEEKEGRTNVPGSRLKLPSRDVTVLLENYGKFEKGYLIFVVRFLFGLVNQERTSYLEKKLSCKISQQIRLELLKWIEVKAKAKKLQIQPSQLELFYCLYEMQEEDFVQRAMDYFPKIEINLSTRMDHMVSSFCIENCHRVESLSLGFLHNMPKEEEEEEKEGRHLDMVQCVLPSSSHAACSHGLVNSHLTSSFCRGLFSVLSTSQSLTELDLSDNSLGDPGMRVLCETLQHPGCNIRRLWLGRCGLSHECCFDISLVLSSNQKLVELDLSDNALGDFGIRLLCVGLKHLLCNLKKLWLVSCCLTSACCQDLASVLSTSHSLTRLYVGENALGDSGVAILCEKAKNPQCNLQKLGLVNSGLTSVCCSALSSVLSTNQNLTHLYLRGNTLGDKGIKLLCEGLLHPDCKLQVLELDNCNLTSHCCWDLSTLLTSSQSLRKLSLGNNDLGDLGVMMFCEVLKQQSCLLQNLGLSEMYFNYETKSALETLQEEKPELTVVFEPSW
- measurement.protocol: THP-1 cells pyroptosis assay
- Type: cell-based
- Parameters: Seed THP-1 cells (25,000 cells/well) containing 1.0 μg/ml LPS; host or cells: THP-1 cells, LPS-primed, nigericin-stimulated
- test.parameters: 1.0 μg/ml LPS, nigericin 5 μM, resazurin readout

// solved cases for IC50 follow
{"columns": ["compound", "measured.parameter", "measurement"],
 "data": [
  ["COc1cc(-c2ccc3c(c2NC(=O)NS(=O)(=O)c2ccn(C(C)(C)C(=O)N(C)C)n2)CCC3)ccn1 [Example 84]", "IC50", "< 0.04 µM"],
  ["CN(CCCO)C(=O)c1cc(S(=O)(=O)NC(=O)Nc2c3c(cc4c2CCC4)CCC3)nn1C [Example 18]", "IC50", "0.16 to 0.64 µM"],
  ["CC(C)NC(=O)c1cc(S(=O)(=O)NC(=O)Nc2c(C(C)C)cccc2C(C)C)nn1C [Example 38]", "IC50", "2.56 to 10 µM"],
  ["CC(C)c1cccc(C(C)C)c1NC(=O)NS(=O)(=O)c1cc(C(=O)N(C)C2CCC2)n(C)n1 [Example 8]", "IC50", "0.64 to 2.56 µM"],
  ["CNC(=O)c1cc(S(=O)(=O)NC(=O)Nc2c(C(C)C)cc(F)cc2C(C)C)nn1C [Example 50]", "IC50", "0.16 to 0.64 µM"]
]}

Endpoint output: IC50 of CC(=O)N1CC(n2ccc(S(=O)(=O)NC(=O)Nc3c4c(cc5c3CCC5)CCC4)n2)C1 [Example 3] . Value?
0.64 to 2.56 µM

Entry to check: CC(=O)N1CCC(n2ccc(S(=O)(=O)NC(=O)Nc3c4c(cc5c3CCC5)CCC4)n2)CC1 [Example 5]
2.56 to 10 µM

Moving on to CN(C(=O)c1cc(S(=O)(=O)NC(=O)Nc2c3c(cc4c2CCC4)CCC3)nn1C)C1COC1 [Example 17]
0.64 to 2.56 µM

Query CN(CCO)C(=O)c1cc(S(=O)(=O)NC(=O)Nc2c3c(cc4c2CCC4)CCC3)nn1C [Example 78] next
0.04 to 0.16 µM

Next compound: Cn1nc(S(=O)(=O)NC(=O)Nc2c3c(cc4c2CCC4)CCC3)cc1C(=O)N1CCC1 [Example 54]
0.04 to 0.16 µM

What about CNC(=O)Cn1ccc(S(=O)(=O)NC(=O)Nc2c3c(cc4c2CCC4)CCC3)n1 [Example 2] ?
0.16 to 0.64 µM

Another compound: CC(C)c1ccc(C(C)C)c(NC(=O)NS(=O)(=O)c2cc(C(=O)N(C)C)n(C)n2)c1 [Example 44]
0.16 to 0.64 µM

Similarly, CC(C)c1cc(F)cc(C(C)C)c1NC(=O)NS(=O)(=O)c1cc(C(=O)N2CCC2)n(C)n1 [Example 45] ?
0.04 to 0.16 µM

Now give it for CC(C)c1cccc(C(C)C)c1NC(=O)NS(=O)(=O)c1cc(C(=O)N(C)CCO)n(C)n1 [Example 75] too.
0.64 to 2.56 µM

Now try CNC(=O)c1cc(S(=O)(=O)NC(=O)Nc2c(C(C)C)cc(Cl)cc2C(C)C)nn1C [Example 32] .
0.16 to 0.64 µM

Same question for CC(C)c1cc(F)cc(-c2cnn(C)c2)c1NC(=O)NS(=O)(=O)c1cc(C(=O)N(C)C)n(C)n1 [Example 35] please.
0.64 to 2.56 µM

One more compound: CC(C)c1cc(Cl)cc(C(C)C)c1NC(=O)NS(=O)(=O)c1cc(C(=O)N(C)CCO)n(C)n1 [Example 74]
0.04 to 0.16 µM

Source of measurements: patent US20210122739A1
